# Tested on: LXRb homodimer (NR concentration 270 nM)
# assay-notes: PBM binding z-score (relative to random genomic background probes); higher = stronger binding; sequences stand for … in GC…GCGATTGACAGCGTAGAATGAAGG
Returns the class for an entry based on its PBM binding z-score. Class ranges: low interval (below -0.6), middle interval (-0.6 to below 0.3), high interval (0.3 or more)

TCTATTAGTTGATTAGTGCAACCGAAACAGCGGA: high interval
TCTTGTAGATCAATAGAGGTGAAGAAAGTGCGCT: middle interval
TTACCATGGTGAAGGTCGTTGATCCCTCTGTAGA: low interval
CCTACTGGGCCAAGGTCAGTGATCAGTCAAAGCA: low interval
CATACAGGGTCAGCTAGGCCAGGGTAGGGACGGC: high interval
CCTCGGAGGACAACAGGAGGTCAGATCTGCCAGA: middle interval

Q) # bin label for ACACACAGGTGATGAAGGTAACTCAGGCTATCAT
A) middle interval

Q) What do you have for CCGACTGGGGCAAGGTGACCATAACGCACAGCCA ?
A) low interval

Q) What do you have for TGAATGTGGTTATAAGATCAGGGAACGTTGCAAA ?
A) high interval

* * *

# Test system: PXR homodimer (NR concentration 270 nM)
# assay-notes: PBM binding z-score (relative to random genomic background probes); higher = stronger binding; sequences stand for … in GC…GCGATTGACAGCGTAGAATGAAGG
Cut-off 0.2 on PBM binding z-score, inclusive. At or above means Y; below means N.

Solved entries:
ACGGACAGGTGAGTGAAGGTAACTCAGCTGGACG: N
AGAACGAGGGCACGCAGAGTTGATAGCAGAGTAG: N
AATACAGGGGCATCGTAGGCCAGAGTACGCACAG: N
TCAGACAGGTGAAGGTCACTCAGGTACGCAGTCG: Y
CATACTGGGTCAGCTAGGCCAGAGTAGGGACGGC: N

Q) Is reported PBM binding z-score greater than or equal to 0.2 here: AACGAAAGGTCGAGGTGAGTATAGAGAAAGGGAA
A) Y

Q) What do you have for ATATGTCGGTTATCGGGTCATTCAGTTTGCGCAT ?
A) Y

Q) What do you have for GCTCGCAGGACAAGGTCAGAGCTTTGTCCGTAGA ?
A) N

* * *

# System: PPARa:RXRa (NR concentration 270 nM, RXRa partner concentration 90 nM)
# assay-notes: PBM binding z-score (relative to random genomic background probes); higher = stronger binding; sequences stand for … in GC…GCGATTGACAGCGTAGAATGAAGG
Entries and their PBM binding z-score
Write the number on its own, no unit after it.

Some sequences with recorded PBM binding z-score:
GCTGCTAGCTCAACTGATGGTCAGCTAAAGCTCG: -1.23
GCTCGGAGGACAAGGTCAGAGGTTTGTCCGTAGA: 2.39

Q) Report PBM binding z-score for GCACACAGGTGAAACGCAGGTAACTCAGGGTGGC tested on PPARa:RXRa (NR concentration 270 nM, RXRa partner concentration 90 nM).
A) 0.939

Q) What do you have for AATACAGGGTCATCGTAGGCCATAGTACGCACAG ?
A) 6.02

Q) What do you have for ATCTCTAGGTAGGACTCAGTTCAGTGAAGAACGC ?
A) 0.278
